Tested on: Saccharomyces cerevisiae
Protocol: protein stability index of tFT-peptide fusion (C-terminal peptide) (PSI (0-1 scale)); higher = more stable (slower turnover)
Run conditions: genetic background: wild type; temperature: 30 C
Assign MET whenever protein stability index does not fall below 0.7; assign NOT MET whenever it does.

ALPCLSPVLPFL	MET

# input Hi, just wondering whether PFPSTIQSYSYS shows protein stability index of 0.7 or higher.
# output MET

# input Hi, just wondering whether QGEKDFRMGSIK shows protein stability index of 0.7 or higher.
# output NOT MET

====

Test system: Saccharomyces cerevisiae
Protocol: protein stability index of tFT-peptide fusion (C-terminal peptide) (PSI (0-1 scale)); higher = more stable (slower turnover)
Run conditions: genetic background: cdc53-1; temperature: 37 C
Readout kind: protein stability index
Output spec: single numeric token, no unit.

# input For the sequence shown here, VLVVLRSEVSLS , give the reported protein stability index.
# output 0.398

# input For the sequence shown here, WLLVVCRGLVFR , give the reported protein stability index.
# output 0.228

====

Tested on: Saccharomyces cerevisiae
Protocol: protein stability index of tFT-peptide fusion (C-terminal peptide) (PSI (0-1 scale)); higher = more stable (slower turnover)
Run conditions: genetic background: wild type; temperature: 37 C
Assign criterion met whenever protein stability index does not fall below 0.4; assign criterion not met whenever it does.

Take a look at these entries with their results.
FVFLVLGPYAMF	criterion met
RIFWMFFSQHIG	criterion not met
LLSILSSLPLSR	criterion met
RTRVRKTRIRTC	criterion met
WRVRFRLLAGFC	criterion not met

# input Hi, just wondering whether SLIVLRSIAVLD shows protein stability index of 0.4 or higher.
# output criterion met

# input Hi, just wondering whether VVVLFGRLVVIC shows protein stability index of 0.4 or higher.
# output criterion met

# input Hi, just wondering whether FSFSFYFALASF shows protein stability index of 0.4 or higher.
# output criterion met

# input Hi, just wondering whether ILAVMFEIYAIL shows protein stability index of 0.4 or higher.
# output criterion met

# input Hi, just wondering whether PFFVFSFLFLLH shows protein stability index of 0.4 or higher.
# output criterion not met

====

Test system: Saccharomyces cerevisiae
Protocol: protein stability index of tFT-peptide fusion (C-terminal peptide) (PSI (0-1 scale)); higher = more stable (slower turnover)
Run conditions: genetic background: das1 deletion; temperature: 30 C
Readout kind: protein stability index
Output spec: single numeric token, no unit.

GKFKSAVFEHAG [SRV2 C-terminal 12 aa]	0.703

Then there is this sequence:
# input Recall the recorded protein stability index for KLLQIHKSKQQD [TAH11 C-terminal 12 aa] with Saccharomyces cerevisiae and state it.
# output 0.69

====

Tested on: Saccharomyces cerevisiae
Protocol: protein stability index of tFT-peptide fusion (C-terminal peptide) (PSI (0-1 scale)); higher = more stable (slower turnover)
Run conditions: genetic background: doa10 deletion; temperature: 30 C
Assign Condition met whenever protein stability index does not fall below 0.2; assign Condition not met whenever it does.

Take a look at these entries with their results.
TGGGGRVSLGVG	Condition met
ALMTFTLVFTYM	Condition met
IIGCIAICLMVN	Condition not met
ASCFFLFVLRVF	Condition not met
VPSPWLIRSLMS	Condition met

# input Hi, just wondering whether SRWMWFDWLRRA shows protein stability index of 0.2 or higher.
# output Condition met

# input Hi, just wondering whether KVGPVLLLCRRS shows protein stability index of 0.2 or higher.
# output Condition met

# input Hi, just wondering whether RPCRPLIAAFVF shows protein stability index of 0.2 or higher.
# output Condition met

# input Hi, just wondering whether GWCLLRVLVLVW shows protein stability index of 0.2 or higher.
# output Condition not met

# input Hi, just wondering whether ATLWVWCFSSHV shows protein stability index of 0.2 or higher.
# output Condition met

====

Test system: Saccharomyces cerevisiae
Protocol: protein stability index of tFT-peptide fusion (C-terminal peptide) (PSI (0-1 scale)); higher = more stable (slower turnover)
Run conditions: genetic background: cdc53-1; temperature: 37 C
Readout kind: protein stability index
Output spec: single numeric token, no unit.

LSFYLRAVRASL	0.782
FCSVFAHFLLCH	0.443

# input For the sequence shown here, FPSCYIWEVEVM , give the reported protein stability index.
# output 0.403

# input For the sequence shown here, CRLATILRITAL , give the reported protein stability index.
# output 0.665

# input For the sequence shown here, RPCRPLIAAFVF , give the reported protein stability index.
# output 0.537

# input For the sequence shown here, CMLGVVRVLVWF , give the reported protein stability index.
# output 0.138

# input For the sequence shown here, TGGGGRVSLGVG , give the reported protein stability index.
# output 0.416

# input For the sequence shown here, LCVWRRAIVWVG , give the reported protein stability index.
# output 0.457

# input For the sequence shown here, ISSAGHNIRFLA , give the reported protein stability index.
# output 0.698

# input For the sequence shown here, SQIALIQYFHIL , give the reported protein stability index.
# output 0.655

====

Tested on: Saccharomyces cerevisiae
Protocol: protein stability index of tFT-peptide fusion (C-terminal peptide) (PSI (0-1 scale)); higher = more stable (slower turnover)
Run conditions: genetic background: das1 deletion; temperature: 30 C
Assign criterion met whenever protein stability index does not fall below 0.7; assign criterion not met whenever it does.

Take a look at these entries with their results.
LKEFTQFCKDNS [MIX23 C-terminal 12 aa]	criterion met
GDKLISPLKKAF [TKL1 C-terminal 12 aa]	criterion not met
LLMVSVVNFVPL [YPL182C C-terminal 12 aa]	criterion not met

Now examine the next entry.
# input Hi, just wondering whether FSGDMSFTVYQL [POA1 C-terminal 12 aa] shows protein stability index of 0.7 or higher.
# output criterion met

====

Tested on: Saccharomyces cerevisiae
Protocol: protein stability index of tFT-peptide fusion (C-terminal peptide) (PSI (0-1 scale)); higher = more stable (slower turnover)
Run conditions: genetic background: wild type; temperature: 30 C
As shown below, each of these sequences has a reported protein stability index value.

PPPPPPPPSPSP	0.742
AANRCSVLPLGF	0.601
LYLLPLCRPFPY	0.692
SPTSTILKSYTR	0.659
KKITKPKSQRLV	0.669
VAWRQSVDLGLL	0.685
IRREETKRKRNL	0.755
PPHLIPTLLSPP	0.721
SVTLVPPPLPFP	0.677
HPPAPSPPETSL	0.698

# input Recall the recorded protein stability index for RVSVGGSVRLFG with Saccharomyces cerevisiae and state it.
# output 0.711

# input Recall the recorded protein stability index for LFDRFVAGVRYG with Saccharomyces cerevisiae and state it.
# output 0.656

# input Recall the recorded protein stability index for GGGGCRVRGLGA with Saccharomyces cerevisiae and state it.
# output 0.684

# input Recall the recorded protein stability index for GTVEDVLIFYEP with Saccharomyces cerevisiae and state it.
# output 0.691

# input Recall the recorded protein stability index for EYFLGPLVRLGR with Saccharomyces cerevisiae and state it.
# output 0.762

# input Recall the recorded protein stability index for PSPHRFPAPTLP with Saccharomyces cerevisiae and state it.
# output 0.687

# input Recall the recorded protein stability index for TNQRKKTVAGEK with Saccharomyces cerevisiae and state it.
# output 0.672

# input Recall the recorded protein stability index for PSPPAPFPVCLL with Saccharomyces cerevisiae and state it.
# output 0.617

# input Recall the recorded protein stability index for MPPRVLSALAPL with Saccharomyces cerevisiae and state it.
# output 0.642

====

System: Saccharomyces cerevisiae
Protocol: protein stability index of tFT-peptide fusion (C-terminal peptide) (PSI (0-1 scale)); higher = more stable (slower turnover)
Run conditions: genetic background: wild type; temperature: 30 C
Readout kind: protein stability index
Output spec: single numeric token, no unit.

# annotated cases, reported protein stability index shown
SVSFFSLCTSSL	0.487
LGLSLPCRGFTL	0.682

# input Recall the recorded protein stability index for NTSRSKKKVNSK with Saccharomyces cerevisiae and state it.
# output 0.704

# input Recall the recorded protein stability index for STSSVMVFLRMC with Saccharomyces cerevisiae and state it.
# output 0.281

# input Recall the recorded protein stability index for CNSRVSAVGLII with Saccharomyces cerevisiae and state it.
# output 0.63

# input Recall the recorded protein stability index for WGGRSGTWGLVG with Saccharomyces cerevisiae and state it.
# output 0.803

# input Recall the recorded protein stability index for PPAPPEPRIVRR with Saccharomyces cerevisiae and state it.
# output 0.684

# input Recall the recorded protein stability index for TRRAISPEGRWL with Saccharomyces cerevisiae and state it.
# output 0.645

====

System: Saccharomyces cerevisiae
Protocol: protein stability index of tFT-peptide fusion (C-terminal peptide) (PSI (0-1 scale)); higher = more stable (slower turnover)
Run conditions: genetic background: wild type; temperature: 30 C
Assign 1 whenever protein stability index does not fall below 0.7; assign -1 whenever it does.

Take a look at these entries with their results.
AIRPPLPPPTPL	-1
HGVQEFRVAPEF	1
MSLSYYFSPVYS	-1
SLLLPTPPPFRP	-1

Now examine the next entry.
# input Hi, just wondering whether PFPPPPTPTLSP shows protein stability index of 0.7 or higher.
# output 1

Reference source for all entries: the supplement of paper PMC10724198
